I'd be grateful if you could share measured pIC50 for these entries.
test system: PBMC; assay: Inhibition of LPS-stimulated TNFalpha release in human PBMCs; format: functional, cell-based
Numbers only, as −log10 of the molar value.

Solved cases below.
chemical_smiles=Cc1ccc(C(=O)NC2CC2)cc1-c1ccc2ccncc2c1 assay_metric=pIC50 readout_number=7.00
chemical_smiles=Cc1ccc(NC(=O)c2ccnc(N3CCCC3)c2)cc1-c1ccc2c(C3CCNCC3)noc2c1 assay_metric=pIC50 readout_number=7.22
chemical_smiles=Cc1ccc(C(=O)NC2CC2)cc1-c1ccc2c(=O)n(CC3CC3)nnc2c1 assay_metric=pIC50 readout_number=6.40
chemical_smiles=Cc1nnc(-c2ccc(-c3cc(C(=O)NC4CC4)ccc3C)c(C)c2)o1 assay_metric=pIC50 readout_number=7.00

For each of the molecules below, state pIC50.
1. Cc1nnc(-c2ccc(-c3cc(NC(=O)c4ccnc(N5CCCC5)c4)ccc3C)c(C)c2)o1
2. Cc1ccc(C(=O)NC2CC2)cc1-c1ccc2c(C3CCNCC3)noc2c1

7.00
6.70

---

molecular target: Dual specificity mitogen-activated protein kinase kinase 1 (Homo sapiens, UniProt Q02750); experiment: Inhibition of MEK1 by cRaf/mek/Erk cascade assay
Sequence (Q02750 whole entry): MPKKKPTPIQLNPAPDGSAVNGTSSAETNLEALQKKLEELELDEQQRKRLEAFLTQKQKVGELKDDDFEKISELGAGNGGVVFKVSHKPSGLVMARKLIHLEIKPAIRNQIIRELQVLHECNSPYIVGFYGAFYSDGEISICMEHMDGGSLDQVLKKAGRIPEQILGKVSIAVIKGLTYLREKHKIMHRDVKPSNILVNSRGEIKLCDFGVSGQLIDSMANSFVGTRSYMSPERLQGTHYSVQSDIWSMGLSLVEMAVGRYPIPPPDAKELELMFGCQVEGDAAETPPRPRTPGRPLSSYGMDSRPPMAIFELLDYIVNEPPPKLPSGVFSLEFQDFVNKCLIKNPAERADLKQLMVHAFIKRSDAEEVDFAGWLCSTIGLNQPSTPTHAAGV
pIC50: −log10 of the molar value.
Outcome label depends on pIC50 relative to 7: at/above gives Yes, below gives No.

chemical_smiles=Cc1ccc(NC(=O)c2ccnc(N3CCCC3)c2)cc1-c1ccc2c(C3CCNCC3)noc2c1 assigned_label=Yes

Consider the record given below.
Check the entry Cc1ccc(C(=O)NC2CC2)cc1-c1ccc2c(C3CCNCC3)noc2c1 : does pIC50 equal or exceed 7?
No

---

Quick record: IC50, Epidermal growth factor receptor (Homo sapiens).

Below, 3 molecules whose answers are already recorded.
chemical_smiles=Cc1ccc(NC(=O)c2ccc(CN3CCN(C)CC3)cc2)cc1-c1ccc(-c2csc(N)n2)cc1 assay_metric=IC50 result="> 25 µM"
chemical_smiles=Cc1ccc(NC(=O)c2ccc(CN3CCN(C)CC3)cc2)cc1-c1ccc2ccncc2c1 assay_metric=IC50 result="0.7 µM"
chemical_smiles=Cc1ccc(NC(=O)c2ccc(CN3CCN(C)CC3)cc2)cc1-c1ccc2c(N)noc2c1 assay_metric=IC50 result="> 25 µM"

Give IC50 for all molecules that follow.
1. Cc1ccc(C(=O)NC2CC2)cc1-c1ccc2ccncc2c1
2. Cc1ccc(C(=O)NC2CC2)cc1-c1ccc2c(=O)n(CC3CC3)nnc2c1
3. Cc1nnc(-c2ccc(-c3cc(NC(=O)c4ccc(CN5CCN(C)CC5)cc4)ccc3C)c(C)c2)o1

> 25 µM
> 25 µM
> 25 µM

---

target: Mitogen-activated protein kinase 14 (Homo sapiens, UniProt Q16539); assay: Inhibition of p38alpha
Sequence (Q16539 whole entry): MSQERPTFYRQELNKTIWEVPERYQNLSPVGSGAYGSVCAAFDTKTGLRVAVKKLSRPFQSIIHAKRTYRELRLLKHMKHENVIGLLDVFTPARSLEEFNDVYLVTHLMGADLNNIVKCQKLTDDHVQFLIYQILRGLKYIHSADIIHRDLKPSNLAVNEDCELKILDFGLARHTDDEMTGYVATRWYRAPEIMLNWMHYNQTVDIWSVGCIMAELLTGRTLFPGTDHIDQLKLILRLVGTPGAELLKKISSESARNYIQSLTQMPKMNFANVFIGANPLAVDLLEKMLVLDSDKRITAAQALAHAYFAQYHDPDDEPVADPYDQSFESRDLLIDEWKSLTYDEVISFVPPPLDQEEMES
pKi: −log10 of the molar value.
assay.metric: pKi

Fill in: pKi of Cc1ccc(C(=O)Nc2cccc(N3CCOCC3)c2)cc1I is ___
< 5.70

---

assay: Volume of distribution at steady state in Lewis rat at 1 mg/kg, iv; assay type: ADME, organism-based; set-up: dose 1 mg/kg, route intravenous; conditions: in vivo, read-out: Vdss
assay.metric: Vd
Don't forget the unit after the number, please.

Requested field: Vd. Item: Cc1nnc(-c2ccc(-c3cc(C(=O)NC4CC4)ccc3C)c(C)c2)o1
1.2 L/kg

---

experiment: AUC ( 0 to 12 hrs) in Lewis rat at 1 mg/kg, po; format: ADME, organism-based; parameters: time < 12 hr, dose 1 mg/kg, route oral; conditions: plasma
assay.metric: AUC(0-t) at 12 h (ng·h/mL)
Answers are plain numbers, in ng·h/mL.

Which measured AUC(0-t) at 12 h value corresponds to Cc1nnc(-c2ccc(-c3cc(C(=O)NC4CC4)ccc3C)c(C)c2)o1 ?
4180

---

Would you mind telling me the reported pKi of each entry?
molecular target: Mitogen-activated protein kinase 14 (Homo sapiens, UniProt Q16539); experiment: Displacement of fluorescent ATP competitive ligand from p38alpha
Answers are plain numbers, as −log10 of the molar value.

Observe how each entry below is paired with its result.
chemical_smiles=Cc1ccc(C(=O)NC2CC2)cc1-c1ccc(-c2csc(N)n2)cc1 assay_metric=pKi readout_number=6.89
chemical_smiles=Cc1ccc(C(=O)Nc2cccc(N3CCOCC3)c2)cc1-c1ccc2nc(N)[nH]c(=O)c2c1 assay_metric=pKi readout_number=8.33
chemical_smiles=Cc1nc(-c2ccc(-c3cc(C(=O)NC4CC4)ccc3C)cc2)no1 assay_metric=pKi readout_number=7.01
chemical_smiles=CC(=O)Nc1cc(-c2ccc(-c3cc(NC(=O)c4ccnc(N5CCCC5)c4)ccc3C)cc2)[nH]n1 assay_metric=pKi readout_number=7.85

Now take the following compound into account.
Returns the measured pKi for the input compound. Input: CCCCn1c(=O)[nH]c2cc(-c3cc(C(=O)NC4CC4)ccc3C)ccc2c1=O
7.74

---

experiment: Terminal half life in Lewis rat at 1 mg/kg, iv; assay type: ADME, organism-based; set-up: dose 1 mg/kg, route intravenous; details: in vivo, read-out: beta t1/2 (converted)
assay.metric: half-life (h)
Answers are plain numbers, in h.

# lookup: half-life of Cc1nnc(-c2ccc(-c3cc(C(=O)NC4CC4)ccc3C)c(C)c2)o1
4.6

---

molecular target: Mitogen-activated protein kinase 14 (Homo sapiens); test: Displacement of fluorescent ATP competitive ligand from p38alpha
pKi: −log10 of the molar value.
Decide by pKi: equal to or exceeding 8 means yes, less means no.

Check out these entries, answers already filled in.
compound=Cc1ccc(NC(=O)c2ccnc(N3CCCC3)c2)cc1-c1ccc2cc[nH]c(=O)c2c1 assigned_label=yes
compound=Cc1ccc(C(=O)NC2CC2)cc1-c1ccc2c(N)noc2c1 assigned_label=no
compound=Cc1ccc(NC(=O)c2ccc(CN3CCN(C)CC3)cc2)cc1-c1ccc2c(N)noc2c1 assigned_label=no
compound=Cc1ccc(C(=O)NC2CC2)cc1-c1ccc2onc(C)c2c1 assigned_label=no
compound=Cc1nnc(-c2ccc(-c3cc(NC(=O)c4ccnc(N5CCCC5)c4)ccc3C)c(C)c2)o1 assigned_label=yes
compound=CCCCn1c(=O)[nH]c2cc(-c3cc(C(=O)Nc4cccc(N5CCOCC5)c4)ccc3C)ccc2c1=O assigned_label=no

// inclusive: pKi at least 8? input: Cc1ccc(C(=O)Nc2cccc(N3CCOCC3)c2)cc1-c1ccc2[nH]c(=O)ccc2c1
no

Tell me whether pKi is at least 8 here: Cc1ccc(NC(=O)c2ccc(CN3CCN(C)CC3)cc2)cc1-c1ccc(-c2csc(N)n2)cc1
no

In plain terms: is recorded pKi at least 8 for Cc1ccc(C(=O)NC2CC2)cc1-c1ccc2c(=O)[nH]c(-c3cccs3)nc2c1 ?
yes

Is reported pKi greater than or equal to 8 here: Cc1ccc(NC(=O)c2ccc(CN3CCN(C)CC3)cc2)cc1-c1ccc2cccnc2c1
no

Entry Cc1ccc(C(=O)Nc2cccc(N3CCOCC3)c2)cc1-c1ccc2cc[nH]c(=O)c2c1 : is its pKi no less than 8?
no

Please indicate if the recorded pKi for Cc1nc(-c2ccc(-c3cc(NC(=O)c4ccnc(N5CCCC5)c4)ccc3C)cc2)no1 meets or exceeds 8.
yes

Please check the record Cc1nnc(-c2ccc(-c3cc(C(=O)Nc4cccc(N5CCOCC5)c4)ccc3C)c(C)c2)o1 and state if its pKi is at or above 8.
yes

Textbook exercise: given the entry Cc1ccc(NC(=O)c2ccnc(N3CCCC3)c2)cc1-c1ccc2[nH]c(=O)ccc2c1 , state whether its pKi is greater than or equal to 8.
no

Given Cc1ccc(NC(=O)c2ccc(CN3CCN(C)CC3)cc2)cc1-c1ccc2cc[nH]c(=O)c2c1 , state whether its pKi is at least 8.
no

Assess whether reported pKi for Cc1ccc(NC(=O)c2ccnc(N3CCCC3)c2)cc1-c1ccc2onc(C)c2c1 sits at 8 or higher.
no

Given the entry Cc1nnc(-c2ccc(-c3cc(NC(=O)c4ccc(CN5CCN(C)CC5)cc4)ccc3C)c(C)c2)o1 , answer whether its pKi meets or surpasses 8.
no

Does the compound Cc1ccc(NC(=O)c2ccnc(N3CCCC3)c2)cc1-c1ccc2c(C3CCNCC3)noc2c1 have recorded pKi that is 8 or more?
yes

Quick check, pKi >= 8? Cc1ccc(C(=O)NC2CC2)cc1-c1ccc2cc[nH]c(=O)c2c1
no

Is reported pKi greater than or equal to 8 here: Cc1ccc(C(=O)NC2CC2)cc1-c1ccc2[nH]ncc2c1 [GW820759X]
no

Hello, I need to know if Cc1ccc(C(=O)Nc2cccc(N3CCOCC3)c2)cc1-c1ccc(-c2csc(N)n2)cc1 has measured pKi not below 8. Thanks!
no

Is pKi for Cc1ccc(C(=O)NC2CC2)cc1-c1ccc2nc(N)[nH]c(=O)c2c1 at or above 8?
no

Form field: pKi at least 8? Entry: Cc1ccc(NC(=O)c2ccc(CN3CCN(C)CC3)cc2)cc1-c1ccc2ccncc2c1
no

---

Entries with reported pIC50 on Tyrosine-protein kinase Lck (Homo sapiens)
Sequence (P06239 whole entry): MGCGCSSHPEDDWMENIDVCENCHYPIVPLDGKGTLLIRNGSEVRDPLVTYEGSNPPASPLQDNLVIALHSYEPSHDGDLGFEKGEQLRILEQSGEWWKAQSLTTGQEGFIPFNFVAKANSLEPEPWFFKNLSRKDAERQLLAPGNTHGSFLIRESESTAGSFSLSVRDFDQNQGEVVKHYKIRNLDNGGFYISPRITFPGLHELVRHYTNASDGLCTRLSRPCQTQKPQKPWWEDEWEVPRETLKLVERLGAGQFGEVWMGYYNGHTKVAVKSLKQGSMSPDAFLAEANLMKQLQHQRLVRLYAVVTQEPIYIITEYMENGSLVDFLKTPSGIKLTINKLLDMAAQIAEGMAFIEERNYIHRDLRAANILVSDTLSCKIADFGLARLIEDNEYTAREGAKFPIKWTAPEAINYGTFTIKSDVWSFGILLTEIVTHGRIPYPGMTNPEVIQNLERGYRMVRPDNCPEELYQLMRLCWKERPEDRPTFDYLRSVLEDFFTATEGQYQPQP
Give bare numbers, as −log10 of the molar value.

chemical_smiles=Cc1ccc(NC(=O)c2ccc(CN3CCN(C)CC3)cc2)cc1-c1ccc2c(N)noc2c1 readout_number=6.00
chemical_smiles=Cc1ccc(C(=O)NC2CC2)cc1-c1ccc2ccncc2c1 readout_number=5.52
chemical_smiles=Cc1ccc(NC(=O)c2ccc(CN3CCN(C)CC3)cc2)cc1-c1ccc2ccncc2c1 readout_number=7.15
chemical_smiles=Cc1ccc(NC(=O)c2ccc(CN3CCN(C)CC3)cc2)cc1-c1ccc(-c2csc(N)n2)cc1 readout_number=5.70

Now for a further molecule.
API: value(readout= pIC50, system= Tyrosine-protein kinase Lck (Homo sapiens), query= Cc1nnc(-c2ccc(-c3cc(NC(=O)c4ccc(CN5CCN(C)CC5)cc4)ccc3C)c(C)c2)o1 )
5.52
